Reference source for all entries: patent US20220041674A1

target: T1, murine chemokine receptor 4 (CXCR4) (murine, UniProt P70658 1-359); experiment: competitive radioligand binding on Eµ-Myc1080 mouse B-cell lymphoma cells, [125I]CPCR4.3
T1 construct: whole, on cells; receptor present on whole cells; also called mCXCR4; mouse CXCR4
T1 sequence (P70658 whole entry): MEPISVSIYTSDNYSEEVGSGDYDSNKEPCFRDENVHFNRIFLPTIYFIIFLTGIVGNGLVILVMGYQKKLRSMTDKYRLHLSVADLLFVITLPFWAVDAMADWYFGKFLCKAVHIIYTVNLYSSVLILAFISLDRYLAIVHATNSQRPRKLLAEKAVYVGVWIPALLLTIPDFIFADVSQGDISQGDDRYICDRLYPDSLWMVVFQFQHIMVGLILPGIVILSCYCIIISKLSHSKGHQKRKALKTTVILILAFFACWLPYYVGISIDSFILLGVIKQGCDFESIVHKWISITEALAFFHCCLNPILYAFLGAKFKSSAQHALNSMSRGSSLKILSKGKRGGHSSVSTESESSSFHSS
Non-standard residues stand in square brackets, D forms with d. Nal = naphthylalanine
measured property: pIC50
Just the number, please; pIC50 means minus log10 of the concentration in mol/L.

Name the recorded pIC50 of the item cyclo([dY]RR[Nal]G) (stands under the natLu column heads although it carries no chelator; also called cyclo(Gly-Nal-Arg-Arg-D-Tyr)) [FC131, c[yRRNaIG] (R2)] in your answer.
6.92
